The reported numbers originate from ChEMBL document CHEMBL3872240.

System: Mus musculus
Assay: Neurotoxicity in Carworth Farm1 mouse assessed as sedation up to 100 mg/kg, ip
Format: toxicity, organism-based
Conditions: in vivo
OBSERVED PROPERTY: Activity

1. CN(C)S(=O)(=O)c1cccc(Oc2ccccc2)c1 ... Non-Toxic
2. CN(C)S(=O)(=O)c1ccccc1 ... Non-Toxic
3. NS(=O)(=O)c1cccc(Cl)c1 ... Non-Toxic
4. CN(C)S(=O)(=O)c1cccc(OC(F)(F)F)c1 ... Non-Toxic
5. COc1cccc(S(=O)(=O)N(C)C)c1 ... Non-Toxic
6. CN(C)S(=O)(=O)c1cccc(Cl)c1 ... Non-Toxic
7. CCN(CC)S(=O)(=O)c1cccc(Cl)c1 ... Non-Toxic

----------
Tested on: Mus musculus
Assay: Anticonvulsant activity in Carworth Farm1 mouse assessed as protection against subcutaneous pentylenetetrazole-induced seizures at 400 mg/kg, ip after 30 mins
Assay type: functional, organism-based
The source made the active and inactive calls. No cut-off for these calls is given here.
OBSERVED PROPERTY: Activity

1. CN(C)S(=O)(=O)c1cccc(Cl)c1 ... Active
2. CCN(CC)S(=O)(=O)c1cccc(Cl)c1 ... Active
3. CN(C)S(=O)(=O)c1ccccc1Cl ... Active
4. CNS(=O)(=O)c1cccc(Cl)c1 ... Active
5. CN(C)S(=O)(=O)c1ccc(Cl)cc1 ... Active
